Reported kon values for the following binders.
Molecular target: T1, hErbB3.mFc (soluble dimeric human ErbB3 extracellular domain fused to mouse Fc) (human)
T1 construct: called dimeric
T1 chain: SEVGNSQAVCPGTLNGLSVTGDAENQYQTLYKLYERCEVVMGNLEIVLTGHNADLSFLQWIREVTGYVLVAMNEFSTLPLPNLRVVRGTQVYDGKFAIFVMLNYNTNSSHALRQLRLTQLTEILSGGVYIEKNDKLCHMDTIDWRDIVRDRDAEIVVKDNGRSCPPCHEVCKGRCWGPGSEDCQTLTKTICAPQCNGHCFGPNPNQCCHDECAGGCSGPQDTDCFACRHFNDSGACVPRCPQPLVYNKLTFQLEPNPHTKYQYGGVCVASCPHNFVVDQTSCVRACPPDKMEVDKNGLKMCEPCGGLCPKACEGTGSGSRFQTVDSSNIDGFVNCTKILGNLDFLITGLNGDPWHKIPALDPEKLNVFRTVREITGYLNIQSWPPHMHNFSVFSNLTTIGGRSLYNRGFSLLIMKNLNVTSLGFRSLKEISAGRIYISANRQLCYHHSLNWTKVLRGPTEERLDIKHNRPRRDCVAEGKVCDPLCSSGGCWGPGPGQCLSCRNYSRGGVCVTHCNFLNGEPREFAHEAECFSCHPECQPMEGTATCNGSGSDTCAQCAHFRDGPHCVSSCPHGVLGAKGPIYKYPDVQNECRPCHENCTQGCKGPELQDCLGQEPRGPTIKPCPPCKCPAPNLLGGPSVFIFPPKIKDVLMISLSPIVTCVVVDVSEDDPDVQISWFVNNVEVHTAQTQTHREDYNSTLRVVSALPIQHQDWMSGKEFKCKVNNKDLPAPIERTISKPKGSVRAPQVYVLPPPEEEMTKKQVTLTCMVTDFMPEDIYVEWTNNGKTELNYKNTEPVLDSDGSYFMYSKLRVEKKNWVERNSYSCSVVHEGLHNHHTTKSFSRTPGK
Assay: SPR (Biacore), 25 C, mAb capture format
Number only, in M⁻¹ s⁻¹; omit the unit.

Problem: Consider the binder shown here: H4H2138P (antibody, V domains shown, Fully human, human IgG4 Fc (H4H prefix)) VH: QVQLQESGPGLVKPSQTLSLTCTVSGGSINSGGYYWSWIRQHPGKGLEWIGYISYSGNTNYNPSLKSRVTISVDTSKNQFSLTLTSVTAADTAVYYCARDSDVDTGLVDGFDVWGQGTMVTVSS VL: DIVMTQSPSSVSASVGDRVTITCRASQGVSSWLAWYQQKPGKAPKLLIYTTSSLQSGVPSRFSGSGSGTDFTLTISSLQPEDFATYYCQQSNSFPFTFGPGTKVEIK What is its recorded kon?
Solution: 3.71e+06

Problem: Consider the binder shown here: H4H2084P (antibody, V domains shown, Fully human, human IgG4 Fc (H4H prefix)) VH: QVQLVESGGGVVQSGKSLRLSCVASGFTFSNYGMHWVRQTPGKGLEWVARIWFDGTNKYYTDSVKGRFTLSRDSSKNTLYLQMNSLRAEDTAVYFCAREESLELDHYVMDVWGQGTTVTVSS VL: AIQMTQSPSSLSASVGDRVTITCRASQDIRDDLGWFQQKPGKAPNLLIYAASSLQSGVPSRFSGSGSGTDFTLTISSLQPEDFATYYCLQDYNYPLTFGGGTKVEIKR What is its recorded kon?
Solution: 3.83e+06

Problem: Consider the binder shown here: H4H1819N (antibody, V domains shown, Human IgG4 Fc (H4H prefix); same variable domains as H1M1819N) VH: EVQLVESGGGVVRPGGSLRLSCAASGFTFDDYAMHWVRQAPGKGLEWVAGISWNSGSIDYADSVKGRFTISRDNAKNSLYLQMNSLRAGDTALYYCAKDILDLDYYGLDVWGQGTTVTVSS VL: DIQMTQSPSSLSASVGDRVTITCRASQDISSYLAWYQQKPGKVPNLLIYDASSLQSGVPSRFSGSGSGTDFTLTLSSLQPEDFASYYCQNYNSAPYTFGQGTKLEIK What is its recorded kon?
Solution: 1.64e+07

Value source: patent US20140072563A1
